# conditionLabel: in ethyl acetate, 308.15 K
property: solubility (mole fraction)

Ask: Look up solubility (mole fraction): Clc1cc(Cl)cc(Cl)c1
Reply: 0.325
